Substrate: CC1=C(C)C(=O)C(C)=C(C)C1=O
Assay: purified protein
Assay type: biochemical, Thiocapsa roseopersicina
Conditions: 200 µM sulfide, 50 mM Tris-HCl pH 8.0, 25 °C, anaerobic
measured-attribute: Km (µM)

protein: TrSqrF; SqrF WT (Thiocapsa roseopersicina; F366A) (protein) MHRITIVGSGFAGLTAVQSIRRTAPDAEITLVSNKAEFIYYPGLIWVPCGIRSGEDLRIDLRPFFKRMRVRHLAGEATGLSPDGRTLETTAGPVENDGLVIGSGGRFIKKLPGIEHAITPCEGIAAAEAIRDRVKAMDGGSIAMGFAGNPNEPSSMRGGPIFEFIFGMDSQLRKEGRRDRFRLHFFTPAERPGNRLGPKAVDGILAEMKRRGIETHLGHKLKSFSESKVTTEAGEFDADLILFMPGMTGNTWFDNTDLPRSPGGLLQADAHCRVPGYERVYVAGDSGSFPGPDWMPKQAHMADLQARAAVKNLLAELQGRAPSETFKVELVCIVDANDTGMLVARTEKNNWVLPSTRFFHWMKLGAEWWYLRPYR
measured-attribute: Km
experimental-value: 46.19

protein: TrSqrF; SqrF WT (Thiocapsa roseopersicina; F366Y) (protein) MHRITIVGSGFAGLTAVQSIRRTAPDAEITLVSNKAEFIYYPGLIWVPCGIRSGEDLRIDLRPFFKRMRVRHLAGEATGLSPDGRTLETTAGPVENDGLVIGSGGRFIKKLPGIEHAITPCEGIAAAEAIRDRVKAMDGGSIAMGFAGNPNEPSSMRGGPIFEFIFGMDSQLRKEGRRDRFRLHFFTPAERPGNRLGPKAVDGILAEMKRRGIETHLGHKLKSFSESKVTTEAGEFDADLILFMPGMTGNTWFDNTDLPRSPGGLLQADAHCRVPGYERVYVAGDSGSFPGPDWMPKQAHMADLQARAAVKNLLAELQGRAPSETFKVELVCIVDANDTGMLVARTEKNNWVLPSTRFFHWMKLGYEWWYLRPYR
measured-attribute: Km
experimental-value: 79.30

protein: TrSqrF; SqrF WT (Thiocapsa roseopersicina) (protein) MHRITIVGSGFAGLTAVQSIRRTAPDAEITLVSNKAEFIYYPGLIWVPCGIRSGEDLRIDLRPFFKRMRVRHLAGEATGLSPDGRTLETTAGPVENDGLVIGSGGRFIKKLPGIEHAITPCEGIAAAEAIRDRVKAMDGGSIAMGFAGNPNEPSSMRGGPIFEFIFGMDSQLRKEGRRDRFRLHFFTPAERPGNRLGPKAVDGILAEMKRRGIETHLGHKLKSFSESKVTTEAGEFDADLILFMPGMTGNTWFDNTDLPRSPGGLLQADAHCRVPGYERVYVAGDSGSFPGPDWMPKQAHMADLQARAAVKNLLAELQGRAPSETFKVELVCIVDANDTGMLVARTEKNNWVLPSTRFFHWMKLGFEWWYLRPYR
measured-attribute: Km
experimental-value: 27.39

Where these numbers come from: paper PMC9666304
